Reported pIC50 values for the following compounds.
Method Description: Cytotoxicity against human MDST8 cells after 72 hrs by CCK8 assay
Type: functional, cell-based
Test Conditions: Homo sapiens, MDST8, 72 h; read-out: IC50
The meaning of pIC50 here: minus log10 of the concentration in molar units.

Known results for compounds:
| Smiles String | Value Observed |
| --- | --- |
| CC(=O)O[C@@H]1O[C@H](C(=O)N[C@H]2CN(Cc3ccccc3)C[C@@H]2NC(=O)[C@H]2O[C@@H](OC(C)=O)[C@H](OC(C)=O)[C@@H](OC(C)=O)[C@@H]2OC(C)=O)[C@@H](OC(C)=O)[C@H](OC(C)=O)[C@H]1OC(C)=O | 7.00 |
| CC(=O)O[C@@H]1O[C@H](C(=O)NCCCBr)[C@@H](OC(C)=O)[C@H](OC(C)=O)[C@H]1OC(C)=O | 7.00 |

Please turn your attention to the following entry.
Task item: Fill in the blank: the reported pIC50 of O=c1[nH]cc(F)c(=O)[nH]1 is ____.
Reply: 7.19

----------
Test system: MCF7
Method Description: Cytotoxicity against human MCF7 cells after 72 hrs by CCK8 assay
Format: functional, cell-based
Test Conditions: mcf7
Parameter: IC50

Known results for compounds:
| Compound | Value Observed |
| --- | --- |
| O=C(NCCO)[C@H]1O[C@](O)(CO)[C@@H](O)[C@@H]1O | Active |
| CC(=O)O[C@@H]1O[C@H](C(=O)NCCCO)[C@@H](OC(C)=O)[C@H](OC(C)=O)[C@H]1OC(C)=O | Active |
| O=C(N[C@H](CO)c1ccccc1)[C@H]1O[C@](O)(CO)[C@@H](O)[C@@H]1O | Not Active |
| O=C(N[C@H](CO)Cc1ccccc1)[C@H]1OC(O)(CO)[C@@H](O)[C@@H]1O (single isomer, unassigned) | Not Active |
| CC(=O)O[C@@H]1O[C@H](C(=O)NCCO)[C@@H](OC(C)=O)[C@H](OC(C)=O)[C@H]1OC(C)=O | Active |

Task item: Fill in the blank: the reported IC50 of CC(=O)O[C@@H]1O[C@H](C(=O)N[C@H](CO)Cc2ccccc2)[C@@H](OC(C)=O)[C@H](OC(C)=O)[C@H]1OC(C)=O is ____.
Reply: Not Active

----------
Method Description: Cytotoxicity against human MDST8 cells after 72 hrs by CCK8 assay
Format: functional, cell-based
Test Conditions: mdst8

| Smiles String | IC50 |
| --- | --- |
| O=C(NCCCO)[C@H]1O[C@](O)(CO)[C@@H](O)[C@@H]1O | Not Active |
| CC(=O)O[C@@H]1O[C@H](C(=O)N[C@H](CO)Cc2ccccc2)[C@@H](OC(C)=O)[C@H](OC(C)=O)[C@H]1OC(C)=O | Not Active |
| O=C(N[C@H](CO)c1ccccc1)[C@H]1O[C@](O)(CO)[C@@H](O)[C@@H]1O | Not Active |

----------
System: MCF7
Method Description: Cytotoxicity against human MCF7 cells after 72 hrs by CCK8 assay
Format: functional, cell-based
Test Conditions: mcf7

| Compound | IC50 |
| --- | --- |
| CC(=O)O[C@@H]1O[C@H](C(=O)NCCCBr)[C@@H](OC(C)=O)[C@H](OC(C)=O)[C@H]1OC(C)=O | Not Active |
| O=C(NCCCO)[C@H]1O[C@](O)(CO)[C@@H](O)[C@@H]1O | Active |
| CC(=O)O[C@@H]1O[C@H](C(=O)N[C@H](CO)c2ccccc2)[C@@H](OC(C)=O)[C@H](OC(C)=O)[C@H]1OC(C)=O | Not Active |
| CC(C)(C)[C@@H](CO)NC(=O)[C@H]1OC(O)(CO)[C@@H](O)[C@@H]1O (single isomer, unassigned) | Active |
